Reference for the values: patent US12172990B2

target: full length human TREX1 (Homo sapiens (Human)); assay: TREX1 Biochemical Assay (fluorescence assay measuring degradation of dsDNA substrate); conditions: 150 pM TREX1, 60 nM dsDNA substrate, 25 minutes at room temperature
pIC50: −log10 of the molar value.
READOUT KIND: pIC50

These solved cases illustrate the format of a correct answer.
Cn1c(-c2ccccc2-c2cccnc2)nc(C(=O)Nc2cnoc2)c(O)c1=O: 6.00 to 7.00
CC(C)CNC(=O)N1CCCC(c2nc(C(=O)Nc3cnoc3)c(O)c(=O)n2C)C1 (centres unmarked): 6.00 to 7.00
Cn1c(C2(COCc3ccccc3)CCCN(C(=O)OC(C)(C)C)C2)nc(C(=O)Nc2cnoc2)c(O)c1=O (centres unmarked): 6.00 to 7.00

# get_value(readout='pIC50', item= Cn1c(-c2ccncc2)nc(C(=O)Nc2cnoc2)c(O)c1=O ) 5.00 to 6.00

Report pIC50 for Cn1c(-c2ccccn2)nc(C(=O)Nc2cnoc2)c(O)c1=O please. < 5.00

----------
biological target: full length human TREX1 (Homo sapiens (Human), UniProt Q9NSU2); test: TREX1 Biochemical Assay (fluorescence assay measuring degradation of dsDNA substrate); conditions: 150 pM TREX1, 60 nM dsDNA substrate, 25 minutes at room temperature
Sequence (Q9NSU2 whole entry): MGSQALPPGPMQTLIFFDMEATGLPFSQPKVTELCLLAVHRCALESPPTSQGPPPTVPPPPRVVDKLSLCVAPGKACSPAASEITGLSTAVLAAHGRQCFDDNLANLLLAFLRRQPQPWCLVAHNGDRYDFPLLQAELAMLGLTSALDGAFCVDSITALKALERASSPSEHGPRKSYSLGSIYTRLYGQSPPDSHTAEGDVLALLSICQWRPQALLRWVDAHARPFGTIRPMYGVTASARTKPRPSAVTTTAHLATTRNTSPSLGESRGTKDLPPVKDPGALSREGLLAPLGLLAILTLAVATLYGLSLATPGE
READOUT KIND: IC50

Look over these answered cases.
Cn1c(Cc2ccccc2)nc(C(=O)Nc2cnoc2)c(O)c1=O: 100 to 1000 nM
Cn1c(C2CCCN(C(=O)CCc3ccccc3)C2)nc(C(=O)Nc2cnoc2)c(O)c1=O (stereo not shown): < 100 nM
Cn1c(C2CCCN(C(=O)c3ccccn3)C2)nc(C(=O)Nc2cnoc2)c(O)c1=O (stereo not shown): 100 to 1000 nM

I am curious: what IC50 value has been reported for Cn1c(C2CCCN(C(=O)OC(C)(C)C)C2)nc(C(=O)Nc2cnoc2)c(O)c1=O (stereo not shown) ? 100 to 1000 nM

Quick check: IC50 of Cn1c(Oc2ccccc2)nc(C(=O)Nc2cnoc2)c(O)c1=O ? < 100 nM

Name the recorded IC50 for Cn1c(C2CN(C(=O)OC(C)(C)C)C2)nc(C(=O)Nc2cnoc2)c(O)c1=O . 1000 to 10000 nM

# get_value(readout='IC50', item= Cn1c(-c2ccc(Br)cc2)nc(C(=O)Nc2cnoc2)c(O)c1=O ) 100 to 1000 nM

----------
IC50 by entry:
target: full length human TREX1 (Homo sapiens (Human), UniProt Q9NSU2); assay: TREX1 Biochemical Assay (fluorescence assay measuring degradation of dsDNA substrate); details: 150 pM TREX1, 60 nM dsDNA substrate, 25 minutes at room temperature

Cn1c(-c2ccccc2NCCCO)nc(C(=O)Nc2cnoc2)c(O)c1=O: > 10000 nM

Return IC50 measured with full length human TREX1 (Homo sapiens (Human), UniProt Q9NSU2) given this molecule: Cn1c(C2(c3ccccc3)CC2)nc(C(=O)Nc2cnoc2)c(O)c1=O 100 to 1000 nM

Quick check: IC50 on full length human TREX1 (Homo sapiens (Human), UniProt Q9NSU2), item Cc1cc(C(=O)NC2CCN(C)CC2)cc(-c2nc(C(=O)Nc3cnoc3)c(O)c(=O)n2C)c1 ? 100 to 1000 nM

Write down the reported IC50 of Cn1c(C2CCC2)nc(C(=O)Nc2cnoc2)c(O)c1=O , test system: full length human TREX1 (Homo sapiens (Human), UniProt Q9NSU2). 100 to 1000 nM

----------
molecular target: UniProt Q9NSU2; experiment: TREX1 Biochemical Assay (fluorescence assay measuring degradation of dsDNA substrate); conditions: 150 pM TREX1, 60 nM dsDNA substrate, 25 minutes at room temperature
pIC50: −log10 of the molar value.
READOUT KIND: pIC50

Cn1c(-c2cnn(Cc3ccccc3)c2)nc(C(=O)Nc2cnoc2)c(O)c1=O [Example 42]: 6.00 to 7.00
Cn1c(C2(Cc3ccccc3)CCCN(C(=O)OC(C)(C)C)C2)nc(C(=O)Nc2cnoc2)c(O)c1=O (stereo not drawn) [Example 50]: 6.00 to 7.00
Cn1c(-c2ccccc2N[C@H]2C[C@@H](O)C2)nc(C(=O)Nc2cnoc2)c(O)c1=O [Example 76]: 6.00 to 7.00
Cn1c(-c2cccc(Br)c2CCO)nc(C(=O)Nc2cnoc2)c(O)c1=O [Example 78]: > 7.00
Cn1c(C2CCCN(C(=O)c3cccnc3)C2)nc(C(=O)Nc2cnoc2)c(O)c1=O (stereo not drawn) [Example 93]: 6.00 to 7.00

Could you share what pIC50 was measured for Cn1c(N2CCC[C@H](c3ccccn3)C2)nc(C(=O)Nc2cnoc2)c(O)c1=O [Example 101] , tested on UniProt Q9NSU2? 6.00 to 7.00

Request - read-out pIC50 | tested on UniProt Q9NSU2 | molecule C[C@H]1CC[C@H](c2nc(C(=O)Nc3cnoc3)c(O)c(=O)n2C)CN1C(=O)c1ccc(Cl)c(Cl)c1 [Example 84] > 7.00

Request - read-out pIC50 | tested on UniProt Q9NSU2 | molecule C[C@@H](Cc1ccccc1)c1nc(C(=O)Nc2cnoc2)c(O)c(=O)n1C [Example 80] > 7.00

Missing value: pIC50, UniProt Q9NSU2, entry Cn1c(N2CC(Oc3ccccc3)C2)nc(C(=O)Nc2cnoc2)c(O)c1=O [Example 122] . Fill in? 6.00 to 7.00

What value of pIC50 on UniProt Q9NSU2 does Cn1c([C@H]2CCCN(C(=O)c3ccc(Cl)c(Cl)c3)C2)nc(C(=O)Nc2cnoc2)c(O)c1=O [Example 97] have? > 7.00

pIC50 of Cn1c(N2CC[C@@H](C(N)=O)C2)nc(C(=O)Nc2cnoc2)c(O)c1=O [Example 118] on UniProt Q9NSU2? > 7.00

What reported pIC50 corresponds to Cn1c(C2CCCN(C(=O)c3cn[nH]c3)C2)nc(C(=O)Nc2cnoc2)c(O)c1=O (stereo not drawn) [Example 94] on UniProt Q9NSU2? 6.00 to 7.00

Lab request: please report pIC50 under test system UniProt Q9NSU2 for Cn1c(C2CCCN(S(C)(=O)=O)C2)nc(C(=O)Nc2cnoc2)c(O)c1=O (stereo not drawn) [Example 87] 5.00 to 6.00

Recall the recorded pIC50 for Cn1c(C2CCCN(C(=O)c3cccnc3)C2)nc(C(=O)Nc2cnoc2)c(O)c1=O (stereo not drawn) [Example 62] with UniProt Q9NSU2 and state it. 6.00 to 7.00

----------
biological target: UniProt:Q9NSU2; assay: TREX1 Biochemical Assay (fluorescence assay measuring degradation of dsDNA substrate); conditions: 150 pM TREX1, 60 nM dsDNA substrate, 25 minutes at room temperature
# maps each entry to its IC50

Example molecules with recorded IC50:
Cn1c([C@H]2CCC[C@@H](NC(=O)c3ccc(Cl)c(Cl)c3)C2)nc(C(=O)Nc2cnoc2)c(O)c1=O: 1000 to 10000 nM
Cn1c(N2CCCCC2)nc(C(=O)Nc2cnoc2)c(O)c1=O: 100 to 1000 nM
Cn1c(C(NC(=O)OCc2ccccc2)c2ccc(Br)cc2)nc(C(=O)Nc2cnoc2)c(O)c1=O (stereo not shown): 100 to 1000 nM

Report IC50 for Cn1c([C@H]2CCN(C(=O)c3ccc(Cl)cc3)C2)nc(C(=O)Nc2cnoc2)c(O)c1=O tested on UniProt:Q9NSU2. 100 to 1000 nM

----------
target: human TREX2 (residues M44-A279) (Homo sapiens (Human)); assay: TREX2 Biochemical Assay (fluorescence assay measuring degradation of dsDNA substrate); settings: 2.5 nM TREX2, 60 nM dsDNA substrate, 25 minutes at room temperature
READOUT KIND: IC50

As a guide, the following entries are already answered.
Cn1c(Oc2ccccc2)nc(C(=O)Nc2cnoc2)c(O)c1=O: 1 to 10 µM
Cn1c(C2CCCN(C(=O)c3ccncc3)C2)nc(C(=O)Nc2cnoc2)c(O)c1=O (centres unmarked): 1 to 10 µM
Cn1c(N2CCC[C@@H]2c2cccnc2)nc(C(=O)Nc2cnoc2)c(O)c1=O: 10 to 100 µM
Cn1c(N2CCCC[C@H]2CCO)nc(C(=O)Nc2cnoc2)c(O)c1=O: 10 to 100 µM
C[C@H](Cc1ccccc1)c1nc(C(=O)Nc2cnoc2)c(O)c(=O)n1C: 1 to 10 µM
Cn1c(C2CCCN(CCc3ccccc3)C2)nc(C(=O)Nc2cnoc2)c(O)c1=O (centres unmarked): > 100 µM
Cn1c(C2CCN2C(=O)OC(C)(C)C)nc(C(=O)Nc2cnoc2)c(O)c1=O (centres unmarked): 10 to 100 µM

Shift focus to the following entry.
Which IC50 value belongs to COC(=O)c1cc(C)cc(-c2nc(C(=O)Nc3cnoc3)c(O)c(=O)n2C)c1 ? 1 to 10 µM

----------
target: human TREX2 (residues M44-A279) (Homo sapiens (Human), UniProt Q9BQ50); experiment: TREX2 Biochemical Assay (fluorescence assay measuring degradation of dsDNA substrate); conditions: 2.5 nM TREX2, 60 nM dsDNA substrate, 25 minutes at room temperature
Sequence (Q9BQ50 whole entry, the tested form may be a part): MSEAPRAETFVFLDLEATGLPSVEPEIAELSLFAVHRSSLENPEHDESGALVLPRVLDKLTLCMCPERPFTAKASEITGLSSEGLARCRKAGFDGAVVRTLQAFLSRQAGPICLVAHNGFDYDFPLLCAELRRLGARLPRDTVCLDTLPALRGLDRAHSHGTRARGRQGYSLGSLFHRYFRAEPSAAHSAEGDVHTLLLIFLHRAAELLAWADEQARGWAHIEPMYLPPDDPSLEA
Item-by-item account of IC50

Cn1c([C@H]2CCCN(C(=O)c3ccc(F)c(Cl)c3)C2)nc(C(=O)Nc2cnoc2)c(O)c1=O: 1 to 10 µM

Field request: IC50 | item: Cn1c(N2CCCCC2)nc(C(=O)Nc2cnoc2)c(O)c1=O 10 to 100 µM

Any idea what its IC50 is? The compound is Cn1nc(CCO)c(-c2nc(C(=O)Nc3cnoc3)c(O)c(=O)n2C)n1 10 to 100 µM

Find the recorded IC50 belonging to CN1CCN(c2nc(C(=O)Nc3cnoc3)c(O)c(=O)n2C)CC1 and report it. 10 to 100 µM

Bench note: what IC50 did Cc1cc(C(=O)NC2CCN(C)CC2)cc(-c2nc(C(=O)Nc3cnoc3)c(O)c(=O)n2C)c1 show? 10 to 100 µM

GET /values?readout=IC50&item= Cc1cc(C(=O)N(C)C)cc(-c2nc(C(=O)Nc3cnoc3)c(O)c(=O)n2C)c1 10 to 100 µM

Consider the compound shown here: Cn1c(-c2cc(Cl)cc(Cl)c2)nc(C(=O)Nc2cnoc2)c(O)c1=O What is its recorded IC50? 1 to 10 µM

IC50 for Cn1c(C2CCCN(S(C)(=O)=O)C2)nc(C(=O)Nc2cnoc2)c(O)c1=O (stereo not drawn) ? 10 to 100 µM

Quick one: IC50 for Cn1c(-c2ccncc2)nc(C(=O)Nc2cnoc2)c(O)c1=O ? > 100 µM
